B1: TPR 5TU (parent)
chain: GGAUCUUCUCGAUCUAACAAAAAAGACAAAUCUGCCACAAAGCUUGAGAGCAUCUUCGGAUGCAGAGGCGGCAGCCUUCGGUGGCGCGAUAGCGCCAACGUUCUCAACUAUGACACGCAAAACGCGUGCUCCGUUGAAUGGAGUUUAUCAUG

Variants of: B1
Test: polymerase ribozyme fitness, log enrichment relative to wild type (log ratio); higher = more active; in vitro selection for triplet polymerase activity
This sample holds only a part of the variants without activity.
polymerase ribozyme fitness (log ratio) listing for selected variants.
Endpoint Label: polymerase ribozyme fitness (log ratio)

>  <Variant>
A29U U31G C72U G83C

>  <Endpoint Label>
polymerase ribozyme fitness (log ratio)

>  <Result>
≤ -4.2

$$$$
>  <Variant>
A20C A22C C43U G83C

>  <Endpoint Label>
polymerase ribozyme fitness (log ratio)

>  <Result>
≤ -4.2

$$$$
>  <Variant>
C51U U53C C63U G74C G86C A89U A113U

>  <Endpoint Label>
polymerase ribozyme fitness (log ratio)

>  <Result>
≤ -4.2

$$$$
>  <Variant>
C43A A115U C118G

>  <Endpoint Label>
polymerase ribozyme fitness (log ratio)

>  <Result>
≤ -4.2

$$$$
>  <Variant>
C14U A40C C54U C63A C95U A106C

>  <Endpoint Label>
polymerase ribozyme fitness (log ratio)

>  <Result>
≤ -4.2

$$$$
>  <Variant>
U6G A24U C79A G84U C85U G117U G141A

>  <Endpoint Label>
polymerase ribozyme fitness (log ratio)

>  <Result>
≤ -4.2

$$$$
>  <Variant>
C5A G59A C76U U77A G84A C118G C132G

>  <Endpoint Label>
polymerase ribozyme fitness (log ratio)

>  <Result>
≤ -4.2

$$$$
>  <Variant>
A12U A49U C54G C93G

>  <Endpoint Label>
polymerase ribozyme fitness (log ratio)

>  <Result>
≤ -4.2

$$$$
>  <Variant>
C85U G88A U151G

>  <Endpoint Label>
polymerase ribozyme fitness (log ratio)

>  <Result>
≤ -4.2

$$$$
>  <Variant>
C10U U77G C87A A91C C108U G133A

>  <Endpoint Label>
polymerase ribozyme fitness (log ratio)

>  <Result>
≤ -4.2

$$$$
>  <Variant>
G42A A47C C85G C96G C116A A147U

>  <Endpoint Label>
polymerase ribozyme fitness (log ratio)

>  <Result>
≤ -4.2

$$$$
>  <Variant>
G70A C99U U134G G140C G143C

>  <Endpoint Label>
polymerase ribozyme fitness (log ratio)

>  <Result>
≤ -4.2

$$$$
>  <Variant>
A12U C51G G88C C108G G117C

>  <Endpoint Label>
polymerase ribozyme fitness (log ratio)

>  <Result>
≤ -4.2

$$$$
>  <Variant>
C87A G117C G136U G141U

>  <Endpoint Label>
polymerase ribozyme fitness (log ratio)

>  <Result>
≤ -4.2

$$$$
>  <Variant>
G117C

>  <Endpoint Label>
polymerase ribozyme fitness (log ratio)

>  <Result>
0.422

$$$$
>  <Variant>
C14G U15A G68C G83A U111C

>  <Endpoint Label>
polymerase ribozyme fitness (log ratio)

>  <Result>
≤ -4.2

$$$$
>  <Variant>
C38U G94A

>  <Endpoint Label>
polymerase ribozyme fitness (log ratio)

>  <Result>
-0.383

$$$$
>  <Variant>
G83U A120C G141A

>  <Endpoint Label>
polymerase ribozyme fitness (log ratio)

>  <Result>
-0.169

$$$$
>  <Variant>
C5A A12C A19U U102G C116A A119G U135A G136C

>  <Endpoint Label>
polymerase ribozyme fitness (log ratio)

>  <Result>
≤ -4.2

$$$$
>  <Variant>
A17G U31A U90C C93U C99G C125A A137C G143C

>  <Endpoint Label>
polymerase ribozyme fitness (log ratio)

>  <Result>
≤ -4.2

$$$$
>  <Variant>
A22U C32U U55G U56C C75A G88U C105U A142U

>  <Endpoint Label>
polymerase ribozyme fitness (log ratio)

>  <Result>
≤ -4.2

$$$$
>  <Variant>
A22U A89U

>  <Endpoint Label>
polymerase ribozyme fitness (log ratio)

>  <Result>
0.229

$$$$
>  <Variant>
C5A A17U U56A U127A

>  <Endpoint Label>
polymerase ribozyme fitness (log ratio)

>  <Result>
-4.16

$$$$
>  <Variant>
A26U U31G G42C C93G A137G

>  <Endpoint Label>
polymerase ribozyme fitness (log ratio)

>  <Result>
≤ -4.2

$$$$
>  <Variant>
C76U U139G

>  <Endpoint Label>
polymerase ribozyme fitness (log ratio)

>  <Result>
-0.649

$$$$
>  <Variant>
C87G A113C A138U U146C

>  <Endpoint Label>
polymerase ribozyme fitness (log ratio)

>  <Result>
≤ -4.2

$$$$
>  <Variant>
A16U G84A

>  <Endpoint Label>
polymerase ribozyme fitness (log ratio)

>  <Result>
-2.41

$$$$
>  <Variant>
C69U C93U

>  <Endpoint Label>
polymerase ribozyme fitness (log ratio)

>  <Result>
-2.33

$$$$
>  <Variant>
C8A A49G G71A C93U G152A

>  <Endpoint Label>
polymerase ribozyme fitness (log ratio)

>  <Result>
≤ -4.2

$$$$
>  <Variant>
A12U C118U A119C G136A G143C

>  <Endpoint Label>
polymerase ribozyme fitness (log ratio)

>  <Result>
-3.19

$$$$
>  <Variant>
U82A C99A C118U

>  <Endpoint Label>
polymerase ribozyme fitness (log ratio)

>  <Result>
-1.42

$$$$
>  <Variant>
U146C U151G

>  <Endpoint Label>
polymerase ribozyme fitness (log ratio)

>  <Result>
≤ -4.2

$$$$
>  <Variant>
A26C A37U C79U A106U G143C U146A U148C

>  <Endpoint Label>
polymerase ribozyme fitness (log ratio)

>  <Result>
≤ -4.2

$$$$
>  <Variant>
C5A G58A G86U

>  <Endpoint Label>
polymerase ribozyme fitness (log ratio)

>  <Result>
-1.52

$$$$
